- run-description: Glutathione reactivity of compound assessed as compound-dGSH conjugate formation incubated by fluorescence detector
- Format: physicochemical
Field: Activity. Provide a value for each of the compounds that follow.
Numbers only, in µmol/L.

Use the examples below as a reference point.
> print(dat)
                                     smiles  result.number
1  CCN1CC=C(C2=Nc3cc(Cl)ccc3Nc3ccc(F)cc32)CC1           0.27
2  Cc1ccc2c(c1)N=C(C1=CCN(C)CC1)c1cc(C)ccc1N2           0.22
3  COc1ccc2c(c1)C(C1=CCN(C)CC1)=Nc1cc(C)ccc1N2           0.07
4  CC(C)N1CC=C(C2=Nc3cc(Cl)ccc3Nc3ccc(F)cc32)CC1           0.29
5  CN1CC=C(C2=Nc3cc(Cl)ccc3Nc3ccc(F)cc32)CC1            0.3

List reported Activity for each of these compounds:
1. CN1CC=C(C2=Nc3cc(Cl)ccc3Nc3ccccc32)CC1
2. CN1CCN(C2=Nc3cc(Cl)ccc3Nc3ccccc32)CC1

1. 0.21
2. 7.5
